assay: HPLC-based lipophilicity (Log D7.4); details: pH 7.4
METRIC: chromatographic logD
One number for each entry.

Solved entries:
COMPOUND	chromatographic logD
O=C(O)c1cc(-c2ccc(C34CCNCC3C4(F)F)cc2)c2ccc(-c3ccc(C(F)(F)F)cc3)cc2c1 (stereo not shown)	2.71
N[C@@H]1C[C@H](CO)C[C@H]1c1ccc(-c2cc(C(=O)O)cc3cc(-c4ccc(C(F)(F)F)cc4)ccc23)cc1	1.06
CC(=O)N1C[C@H]2C[C@@H]1C[C@@H]2c1ccc(-c2cc(C(=O)O)cc3cc(-c4ccc(C(F)(F)F)cc4)ccc23)cc1 [Compound 118]	0.921

Prompt: Entry under review: O=C(O)c1cc(-c2ccc(C3C4CCC3CNC4)cc2)c2ccc(-c3ccc(C(F)(F)F)cc3)cc2c1 (stereo not shown) . Reported chromatographic logD?
Completion: 2.97

###

molecular target: UniProt P10635; assay: CYP2D6 inhibition; format: in vitro ADME; conditions: Table 4
Sequence (P10635 whole entry): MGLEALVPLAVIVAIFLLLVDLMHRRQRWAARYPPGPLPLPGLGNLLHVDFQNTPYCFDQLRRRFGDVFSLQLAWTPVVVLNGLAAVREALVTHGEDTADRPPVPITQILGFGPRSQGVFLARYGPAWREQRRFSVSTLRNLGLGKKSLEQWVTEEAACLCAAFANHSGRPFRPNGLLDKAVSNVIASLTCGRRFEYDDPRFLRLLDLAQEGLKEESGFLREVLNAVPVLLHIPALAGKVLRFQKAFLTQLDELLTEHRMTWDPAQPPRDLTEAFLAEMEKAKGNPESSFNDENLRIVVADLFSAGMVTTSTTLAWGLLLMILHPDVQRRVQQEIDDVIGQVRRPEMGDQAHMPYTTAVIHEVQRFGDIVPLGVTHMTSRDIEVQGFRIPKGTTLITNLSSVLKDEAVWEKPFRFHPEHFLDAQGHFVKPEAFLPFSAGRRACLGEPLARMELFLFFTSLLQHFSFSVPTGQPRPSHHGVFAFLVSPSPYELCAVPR
METRIC: IC50

Prompt: Entry under review: `O=C(O)c1cc(-c2ccc(-c3cc(CO)on3)cc2)c2ccc(-c3ccc(C(F)(F)F)cc3)cc2c1` . Reported IC50?
Completion: > 30 µM

###

Molecular target: hP2Y14R (Homo sapiens)
Construct: expressed in transfected cells; host or cells: CHO cells
Sequence (Q15391 1-338): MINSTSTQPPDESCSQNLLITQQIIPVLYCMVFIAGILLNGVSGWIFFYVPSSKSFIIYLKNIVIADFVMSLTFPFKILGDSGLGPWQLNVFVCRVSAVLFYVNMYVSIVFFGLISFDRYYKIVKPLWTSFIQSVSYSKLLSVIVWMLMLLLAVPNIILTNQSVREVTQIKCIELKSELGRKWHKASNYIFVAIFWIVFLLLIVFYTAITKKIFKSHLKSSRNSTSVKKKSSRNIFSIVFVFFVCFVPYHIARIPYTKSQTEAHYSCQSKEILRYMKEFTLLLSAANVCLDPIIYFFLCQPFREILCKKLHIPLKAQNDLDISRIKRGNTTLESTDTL
Experiment: Inhibition of fluorescent antagonist binding in whole hP2Y14R-expressing CHO cells (flow cytometry)
Conditions: Table 6; fluorescent hP2Y14R antagonist (3); read-out: hP2Y14R, IC50
Could you please report measured IC50 for the items listed next?
Numbers only, in nM.

COMPOUND	IC50 [nM]
N[C@@H]1C[C@H](CO)[C@@H](c2ccc(-c3cc(C(=O)O)cc4cc(-c5ccc(C(F)(F)F)cc5)ccc34)cc2)C1 [Compound 134]	10.8

// each listed compound needs a value for IC50
1. N[C@@H]1C[C@H](C(=O)O)[C@@H](c2ccc(-c3cc(C(=O)O)cc4cc(-c5ccc(C(F)(F)F)cc5)ccc34)cc2)C1 [Compound 138]
2. O=C(O)c1cc(-c2ccc([C@@H]3C[C@@H]4C[C@H]3NC4=O)cc2)c2ccc(-c3ccc(C(F)(F)F)cc3)cc2c1 [Compound 121]
3. O=C(O)c1cc(-c2ccc([C@H]3C[C@@H]4CN[C@H]3C4)cc2)c2ccc(-c3ccc(C(F)(F)F)cc3)cc2c1 [Compound 117]

Completion:
1: 49.6; 2: 37.3; 3: 25.9

// each listed compound needs a value for IC50
1. O=C(O)c1cc(-c2ccc([C@@H]3C[C@@H]4C[C@H]3C(=O)N4)cc2)c2ccc(-c3ccc(C(F)(F)F)cc3)cc2c1 [Compound 120]
2. N[C@H]1C[C@@H](CO)C[C@@H]1c1ccc(-c2cc(C(=O)O)cc3cc(-c4ccc(C(F)(F)F)cc4)ccc23)cc1 [Compound 137]
3. O=C(O)c1cc(-c2ccc([C@H]3C[C@H]4C[C@@H]3CN4)cc2)c2ccc(-c3ccc(C(F)(F)F)cc3)cc2c1 [Compound 114]
4. CC(=O)N1C[C@H]2C[C@@H]1C[C@@H]2c1ccc(-c2cc(C(=O)O)cc3cc(-c4ccc(C(F)(F)F)cc4)ccc23)cc1 [Compound 118]

Completion:
1: 39.5; 2: 125; 3: 3.11; 4: 107
